# System: platelets
# experiment summary: Scanning electron microscopy study of platelet morphology after addition of PAF
# Assay type: in vivo, Japanese large-ear white rabbits
# assay setup: rabbits, 5.0 mg/kg once daily for 7 days; PRP after addition of PAF, 100 platelets observed
# Types of morphology: Tree like per record follows
Give a bare numeral; the unit % is implied.

-- ask What does the record list as Types of morphology: Tree like for CC(=O)Oc1cc2c(s1)CCN(C(C(=O)C1CC1)c1ccccc1F)C2 (stereo not shown) ?
-- reply 19.6

-- ask What does the record list as Types of morphology: Tree like for `CCCSc1nc(N[C@@H]2C[C@H]2c2ccc(F)c(F)c2)c2nnn([C@@H]3C[C@H](OCCO)[C@@H](O)[C@H]3O)c2n1` ?
-- reply 21.4

-- ask What does the record list as Types of morphology: Tree like for CC1C(=O)OC2C(O)C34C5CC(C(C)(C)C)C36C(OC(=O)C6O)OC4(C(=O)O5)C12O (stereo not shown) [Ginkgolide B] ?
-- reply 15.8

-- ask What does the record list as Types of morphology: Tree like for `COC(=O)[C@H](c1ccccc1Cl)N1CCc2sccc2C1` ?
-- reply 24.6
